Catalogue of drug sensitivity score values
- Tested on: S462
- Protocol details: drug sensitivity score (DSS, CellTiter-Glo viability, 72 h) (DSS (dimensionless)); higher = more sensitive; extreme values may be limits of the assay
Experimental endpoint: drug sensitivity score

Compound | Readout value
C=CCc1cccc(/C=N/NC(=O)CN2CCN(Cc3ccccc3)CC2)c1O [PAC-1] (max concentration tested 10000 nM) | 3.7
CNNCc1ccc(C(=O)NC(C)C)cc1 [Procarbazine] (max concentration tested 10000 nM) | 0
Oc1nc(-c2ccc(C(F)(F)F)cc2)nc2c1CSCC2 [XAV-939] (max concentration tested 10000 nM) | 0
COc1cc2c(cc1-c1c(C)noc1C)ncc1[nH]c(=O)n([C@H](C)c3ccccn3)c12 [I-BET151] (max concentration tested 10000 nM) | 5.52
COc1ccccc1S(=O)(=O)Nc1ccc2c(c1)CN(C)C(=O)N2 [PFI-1] (max concentration tested 10000 nM) | 4.68
O=NN(CCCl)C(=O)NC1CCCCC1 [Lomustine] (max concentration tested 10000 nM) | 0
Cc1ccc(C(=O)N(CCCN)[C@@H](c2oc3cc(Cl)ccc3c(=O)c2Cc2ccccc2)C(C)C)cc1 (max concentration tested 100 nM) | 0
